- Tested on: ACVR1;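 also: KINOMEscan kinase panel screen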
- reported conditions: concentration: 1 μM, replicates: in singlicate; n = 1
metric: %Inh (%)
Give your result in % as a bare value.

# molecule, readout units, %Inh
data = [
    ("COC(=O)c1cccc(NC(=O)NC2CCN(c3ccnc(Nc4ccc(F)cc4)n3)C2)c1 (stereo not drawn)", "%", 0),
]

## Task Record request: %Inh value, item "COc1ccc(-c2coc3ccc(-c4nnc(C)o4)cc23)cc1"
## Result 0

## Task Try this molecule too: "CNCc1ccc2nc(NC(=O)c3ccc(C(C)(C)C)cc3)cn2c1"
## Result 2

## Task Then this molecule: "FC(F)(F)c1ccccc1-c1cc(-c2c[nH]nc2-c2ccccn2)ccn1"
## Result 0

## Task Further, for COC(=O)C(NC(=O)NC1CCN(c2ccnc(Nc3ccc(F)cc3)n2)C1)c1ccccc1 (stereo not drawn) ?
## Result 4

## Task What would you report for "COc1ccc(Nc2nccc(-c3ccc(NC(=O)c4cc5cc(F)ccc5[nH]4)cc3)n2)cc1" ?
## Result 0
